target: human histamine H4 receptor (Homo sapiens, UniProt Q9H3N8); construct: cell membranes; assay: Binding assay on recombinant human histamine H4 receptor (3H-histamine displacement); conditions: membranes of SK-N-MC or COS7 cells expressing human H4 receptor, Cheng-Prusoff
pKi: −log10 of the molar value.
Observed property: pKi

CN1CCCN(CCCOc2ccc(-c3nc4c([nH]3)CCCC4)cc2Cl)CC1 ... 7.19

I: CN1CCC(CCCOc2ccc(-c3nc(-c4ccccc4)c(C(F)(F)F)[nH]3)cn2)CC1
II: COc1cccc(-c2nc(-c3ccc(OCCCN4CCN(C)CC4)c(F)c3)[nH]c2-c2cccc(OC)c2)c1
III: Cc1cc(OCCCC2CCN(C)CC2)ccc1-c1nc(-c2cccc(C(F)(F)F)c2)c(C)[nH]1
IV: CN1CCC(CCCOc2ccc(-c3nc(-c4ccccc4)c(C(F)(F)F)[nH]3)c(Cl)c2)CC1
V: Cc1cc(OCCOC2CCN(C)CC2)ccc1-c1nc(-c2cccc(C(F)(F)F)c2)c(C)[nH]1
Req: // ascending sort on recorded pKi Please respond by ranking the labels in the order requested.
Resp: V, I, II, IV, III
